- MEASURED_TARGET: human NEP (Homo sapiens)
- Construct: 1182-ZN
- PROTOCOL_NOTES: In vitro enzyme inhibition assay at human NEP (Assay 1)
- TEST_SETTINGS: recombinant enzyme, fluorogenic peptide substrate, 37° C.
- Experimental: In Vitro Assays for the Quantitation of Inhibitor Potencies (IC50) at Human and Rat NEP, and Human ACE The inhibitory activities of compounds at human and rat neprilysin (EC 3.4.24.11; NEP) and human angiotensin converting enzyme (ACE) were determined using in vitro assays as described below. […] Plates were read on a fluorometer with excitation and emission wavelengths set to 320 nm and 405 nm, respectively. […]
pKi: −log10 of the molar value.
RESULT_TYPE: pKi

Recorded pKi, per entry:
CC(C)(O)c1cc(C(=O)NN(Cc2ccc(-c3cc(Cl)ccc3F)cc2)C[C@@H](O)C(=O)O)nn1CC(=O)O ... 8.00 to 8.90
O=C(NN(Cc1ccc(-c2cccc(Cl)c2)cc1)C[C@@H](O)C(=O)O)c1cn(O)nn1 ... ≥ 9.00
O=C(NN(Cc1ccc(-c2ccccc2)cc1)C[C@@H](O)C(=O)O)c1cc(C(=O)N2CC[C@H](O)C2)n[nH]1 ... 8.00 to 8.90
CCCCc1cc(C(=O)NN(Cc2ccc(-c3cc(Cl)ccc3F)cc2)C[C@@H](O)C(=O)O)[nH]n1 ... ≥ 9.00

IN: Tell us which pKi value is on record for O=C(NN(Cc1ccc(-c2cccc(Cl)c2)cc1)C[C@@H](O)C(=O)O)c1cc(-c2ccccc2Cl)no1
OUT: ≥ 9.00

IN: Tell us which pKi value is on record for O=C(NN(Cc1ccc(-c2cc(Cl)ccc2F)cc1)C[C@@H](O)C(=O)O)c1nn(-c2ccccc2)c(=O)[nH]1
OUT: ≥ 9.00

----------
- MEASURED_TARGET: human NEP (Homo sapiens)
- Construct: 1182-ZN
- PROTOCOL_NOTES: In vitro enzyme inhibition assay at human NEP (Assay 1)
- TEST_SETTINGS: recombinant enzyme, fluorogenic peptide substrate, 37° C.
RESULT_TYPE: Ki

Recorded Ki, per entry:
O=C(NN(Cc1ccc(-c2ccccc2)cc1F)C[C@@H](O)C(=O)O)c1cc(O)no1 ... 1.26 to 10 nM
O=C(NN(Cc1ccc(-c2ccccc2)cc1)C[C@@H](O)C(=O)O)c1cc(C(=O)N2CCCCC2)n[nH]1 ... 12.6 to 100 nM
O=C(NN(Cc1ccc(-c2cc(Cl)ccc2Cl)cc1)C[C@H](O)C(=O)O)c1cc(O)no1 ... ≤ 1 nM
O=C(NN(Cc1ccc(-c2cc(Cl)ccc2F)cc1)C[C@@H](O)C(=O)O)c1cc(-c2cccnc2)on1 ... 1.26 to 10 nM
O=C(NN(Cc1ccc(-c2ccccc2)cc1)C[C@H](O)C(=O)O)c1cc(Cl)c2[nH]nnc2c1 ... 126 to 1000 nM

IN: Identify measured Ki obtained with human NEP (Homo sapiens) for O=C(NC1CC1)c1cc(C(=O)NN(Cc2ccc(-c3ccccc3)cc2)C[C@@H](O)C(=O)O)[nH]n1 .
OUT: 12.6 to 100 nM

IN: Identify measured Ki obtained with human NEP (Homo sapiens) for CC(C)CN(C)C(=O)c1cc(C(=O)NN(Cc2ccc(-c3ccccc3)cc2)C[C@@H](O)C(=O)O)[nH]n1 .
OUT: 12.6 to 100 nM

IN: Identify measured Ki obtained with human NEP (Homo sapiens) for O=C(NN(Cc1ccc(-c2cc(Cl)ccc2F)cc1)C[C@@H](O)C(=O)O)c1cc(O)n(-c2ccccn2)n1 .
OUT: 1.26 to 10 nM

IN: Identify measured Ki obtained with human NEP (Homo sapiens) for O=C(NN(Cc1ccc(-c2cccc(Cl)c2)cc1)C[C@@H](O)C(=O)O)c1cc(-c2ccccc2O)n[nH]1 .
OUT: 1.26 to 10 nM

IN: Identify measured Ki obtained with human NEP (Homo sapiens) for O=C(NN(Cc1ccc(-c2cccc(Cl)c2)cc1)C[C@@H](O)C(=O)O)c1c[nH]c(=O)o1 .
OUT: 1.26 to 10 nM

----------
- MEASURED_TARGET: human NEP (Homo sapiens)
- Construct: 1182-ZN
- PROTOCOL_NOTES: In vitro enzyme inhibition assay at human NEP (Assay 1)
- TEST_SETTINGS: recombinant enzyme, fluorogenic peptide substrate, 37° C.
The reader will find reported Ki values listed item by item below.

Recorded Ki, per entry:
COc1ccccc1C(=O)Nc1cc(C(=O)NN(Cc2ccc(-c3cc(Cl)ccc3F)cc2)C[C@@H](O)C(=O)O)[nH]n1 ... ≤ 1 nM
O=C(NN(Cc1ccc(-c2cc(Cl)ccc2F)cc1)C[C@@H](O)C(=O)O)c1cn(O)nn1 ... ≤ 1 nM
O=C(NN(Cc1ccc(-c2cc(Cl)ccc2F)cc1)C[C@@H](O)C(=O)O)c1c[nH]c(=O)o1 ... ≤ 1 nM
O=C(NN(Cc1ccc(-c2cc(Cl)ccc2F)cc1)C[C@@H](O)C(=O)O)c1cc(-c2cccc(Cl)c2)no1 ... ≤ 1 nM
O=C(NN(Cc1ccc(-c2cccc(Cl)c2)c(F)c1)C[C@@H](O)C(=O)O)c1cc(O)no1 ... ≤ 1 nM
N#Cc1cc(-c2cccc(Cl)c2)ccc1CN(C[C@@H](O)C(=O)O)NC(=O)c1cc(O)no1 ... 1.26 to 10 nM

Then there is this compound:
IN: Tell us which Ki value is on record for O=C(NN(Cc1ccc(-c2cc(Cl)ccc2F)cc1)C[C@@H](O)C(=O)O)c1cc(Cl)no1
OUT: 1.26 to 10 nM

----------
The reader will find reported pKi values listed item by item below.
- MEASURED_TARGET: human NEP (Homo sapiens, UniProt P08473)
- Construct: 1182-ZN
- Sequence (P08473 whole entry): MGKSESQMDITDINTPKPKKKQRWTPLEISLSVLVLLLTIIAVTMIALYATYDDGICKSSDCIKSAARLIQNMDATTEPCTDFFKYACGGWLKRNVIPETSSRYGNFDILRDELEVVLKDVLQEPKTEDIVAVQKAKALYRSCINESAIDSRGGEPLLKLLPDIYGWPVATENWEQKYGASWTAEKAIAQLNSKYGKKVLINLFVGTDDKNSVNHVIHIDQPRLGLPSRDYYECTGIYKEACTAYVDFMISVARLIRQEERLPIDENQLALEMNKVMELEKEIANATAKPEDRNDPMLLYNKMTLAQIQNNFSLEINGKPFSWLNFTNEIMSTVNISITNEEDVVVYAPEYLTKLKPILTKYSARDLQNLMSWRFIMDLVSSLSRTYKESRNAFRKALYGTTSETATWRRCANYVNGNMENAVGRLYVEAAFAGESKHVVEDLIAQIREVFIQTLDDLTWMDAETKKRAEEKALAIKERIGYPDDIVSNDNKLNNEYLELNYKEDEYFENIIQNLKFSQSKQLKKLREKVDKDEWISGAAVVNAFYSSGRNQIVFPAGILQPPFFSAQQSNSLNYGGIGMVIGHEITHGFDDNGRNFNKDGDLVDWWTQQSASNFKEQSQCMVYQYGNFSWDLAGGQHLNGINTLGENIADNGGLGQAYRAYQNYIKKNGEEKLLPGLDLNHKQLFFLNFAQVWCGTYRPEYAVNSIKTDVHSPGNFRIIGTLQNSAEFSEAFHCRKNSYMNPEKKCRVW
- PROTOCOL_NOTES: In vitro enzyme inhibition assay at human NEP (Assay 1)
- TEST_SETTINGS: recombinant enzyme, fluorogenic peptide substrate, 37° C.
pKi: −log10 of the molar value.

Recorded pKi, per entry:
O=C(NN(Cc1ccc(-c2cccc(Cl)c2)cc1)C[C@@H](O)C(=O)O)c1cnc(-c2ccccc2)o1 ... 7.00 to 7.90
O=C(NN(Cc1ccc(-c2cc(Cl)ccc2F)cc1)C[C@@H](O)C(=O)O)c1nn(-c2ccc(F)cc2)c(=O)[nH]1 ... 8.00 to 8.90
O=C(NN(Cc1ccc(-c2cccc(Cl)c2)cc1)C[C@@H](O)C(=O)O)c1nnn[nH]1 ... ≥ 9.00
O=C(NN(Cc1ccc(-c2cc(Cl)ccc2F)cc1)C[C@@H](O)C(=O)O)c1nnn[nH]1 ... ≥ 9.00
CC(=O)c1cc(C(=O)NN(Cc2ccc(-c3cc(Cl)ccc3C)cc2)C[C@H](O)C(=O)O)[nH]n1 ... 8.00 to 8.90
COc1ccccc1-c1cc(C(=O)NN(Cc2ccc(-c3cccc(Cl)c3)cc2)C[C@@H](O)C(=O)O)on1 ... 8.00 to 8.90
CC(C)(C)c1cc(C(=O)NN(Cc2ccc(-c3cc(Cl)ccc3F)cc2)C[C@@H](O)C(=O)O)on1 ... 8.00 to 8.90
O=C(NN(Cc1ccc(-c2cccc(Cl)c2)cc1F)C[C@@H](O)C(=O)O)c1cn(O)nn1 ... ≥ 9.00

IN: Tell us which pKi value is on record for O=C(NN(Cc1ccc(-c2cccc(Cl)c2)cc1)C[C@@H](O)C(=O)O)c1cc(O)no1
OUT: ≥ 9.00

IN: Tell us which pKi value is on record for O=C(NN(Cc1ccc(-c2ccccc2)cc1)C[C@@H](O)C(=O)O)c1cc(C(=O)N2CCC(O)C2)n[nH]1 (some centres unmarked)
OUT: 8.00 to 8.90

IN: Tell us which pKi value is on record for COc1ccccc1-c1ccc(CN(C[C@@H](O)C(=O)O)NC(=O)c2nnn[nH]2)cc1
OUT: 8.00 to 8.90

IN: Tell us which pKi value is on record for CC(=O)c1cc(C(=O)NN(Cc2ccc(-c3cc(Cl)ccc3F)cc2)C[C@H](O)C(=O)O)[nH]n1
OUT: ≥ 9.00

IN: Tell us which pKi value is on record for O=C(NN(Cc1ccc(-c2cccc(Cl)c2)cc1)C[C@@H](O)C(=O)O)c1ccc2[nH]nnc2c1F
OUT: 8.00 to 8.90

IN: Tell us which pKi value is on record for CCc1cc(C(=O)NN(Cc2ccc(-c3cc(Cl)ccc3F)cc2)C[C@@H](O)C(=O)O)on1
OUT: ≥ 9.00

IN: Tell us which pKi value is on record for CC(=O)c1cc(C(=O)NN(Cc2ccc(-c3cc(Cl)ccc3Cl)cc2)C[C@H](O)C(=O)O)[nH]n1
OUT: 8.00 to 8.90

IN: Tell us which pKi value is on record for CC(C)Cc1cc(C(=O)NN(Cc2ccc(-c3cc(Cl)ccc3F)cc2)C[C@@H](O)C(=O)O)on1
OUT: ≥ 9.00

IN: Tell us which pKi value is on record for O=C(NN(Cc1ccc(-c2cc(Cl)ccc2F)cc1)C[C@@H](O)C(=O)O)c1cc(-c2cc(Cl)ccc2Cl)n[nH]1
OUT: ≥ 9.00

IN: Tell us which pKi value is on record for O=C(NN(Cc1ccc(-c2cc(Cl)ccc2F)cc1)C[C@@H](O)C(=O)O)c1cnn[nH]1
OUT: ≥ 9.00

IN: Tell us which pKi value is on record for O=C(NN(Cc1ccc(-c2cccc(Cl)c2)cc1)C[C@@H](O)C(=O)O)c1cnc(O)nc1
OUT: ≥ 9.00

IN: Tell us which pKi value is on record for CN(C)C(=O)c1cc(C(=O)NN(Cc2ccc(-c3cccc(Cl)c3)cc2)C[C@@H](O)C(=O)O)[nH]n1
OUT: ≥ 9.00

IN: Tell us which pKi value is on record for O=C(NN(Cc1ccc(-c2cccc(Cl)c2)cc1F)C[C@@H](O)C(=O)O)c1cc(O)no1
OUT: ≥ 9.00

IN: Tell us which pKi value is on record for O=C(NN(Cc1ccc(-c2ccccc2F)cc1)C[C@@H](O)C(=O)O)c1cc(O)no1
OUT: 8.00 to 8.90

IN: Tell us which pKi value is on record for O=C(NN(Cc1ccc(-c2cc(Cl)ccc2F)cc1Cl)C[C@@H](O)C(=O)O)c1cc(O)no1
OUT: ≥ 9.00

IN: Tell us which pKi value is on record for CN(CC1CC1)C(=O)c1cc(C(=O)NN(Cc2ccc(-c3cccc(Cl)c3)cc2)C[C@@H](O)C(=O)O)[nH]n1
OUT: ≥ 9.00

IN: Tell us which pKi value is on record for COc1ccccc1-c1ccc(CN(C[C@H](O)C(=O)O)NC(=O)c2cc(C(C)=O)n[nH]2)cc1
OUT: 8.00 to 8.90

IN: Tell us which pKi value is on record for COc1c(F)c(F)c(Cn2nc(C(=O)NN(Cc3ccc(-c4ccccc4)cc3)C[C@@H](O)C(=O)O)cc2C(=O)O)c(F)c1F
OUT: 8.00 to 8.90
